Reported melting point values for the following molecules.

Some molecules with recorded melting point:
molecule=Cc1cccc(Cl)c1N1CCCN(C2CCC2)C1=S result_value="89 to 91 °C"
molecule="CN(C)C1(c2ccccc2)CCC2(NCCc3c2[nH]c2ccccc32)C(Sc2ccccc2)C1 (stereo not given)" result_value="171 to 173 °C"
molecule=CCOC(=O)c1ccc(S(C)(=O)=O)c(-c2cc(C)no2)c1C result_value="83 to 86 °C"

input: Recorded melting point of Cc1nc(Cl)c([N+](=O)[O-])c(NCC(C)(C)NC(=O)OC(C)(C)C)c1C , please.
output: 97 to 100 °C

input: Recorded melting point of COC(=O)c1ccc(NC(=O)c2ccccc2Cc2ccccc2)cc1 , please.
output: 138 to 139 °C
